# Tested on: c-Abl (mouse)
# experiment.summary: phosphorylation enrichment, bacterial display (enrichment ratio); higher = better substrate or ligand; peptides without Tyr show the background
Parameter class (string): assigned from measured phosphorylation enrichment. Ranges: bottom bin = under 0.7, middle bin = from 0.7 up to 1, top bin = 1 and over

Some entries whose results are on file:
LLEGKYEWQEV [CDKN1B_Y74_P69L]
top bin
PIPAAYNRFDQ [CDC73_Y290_YF]
bottom bin
REAAAYLHGRL [AGXT_Y297]
top bin
FEEDPYLVVNP [MCM6_Y810_YF]
middle bin
ISRASYYRKGG [ALK_Y1282_Y1278S]
bottom bin

Any idea which band HDHYGYRQSVT [CD55_Y245_R240H] is in? bottom bin

Okay, and PQAVTYATVKH [LILRB4_Y360_K362T] ? middle bin

Can you check PLDGEYFTLRI [TP53_Y327_Q331R] next? top bin

Can you check NTGGYYDLYGG [PTPN11_Y63_D61G] next? middle bin

Check PHQTIYGALMI [FGF23_Y70_S71G] too. top bin

Please give the result for LYSINYLHFGE [KDM4C_Y201] too. top bin

Let us now turn to CSRRFYQLTKL [AR_Y858] bottom bin

And LYSGDYYRIQG [DDR2_Y740] ? top bin

Cool, now LGRGKSSEVFE [CSNK2A1_Y50_Y50S] middle bin

Please do the same for ARKRKYFKKHE [NFIX_Y40] as well. bottom bin

What about this sequence? MKNDLYQTPLH [NFKB1_Y582_R578K] top bin

Also AAVNGYVFGGG [ECHS1_Y137_A138V] ? bottom bin

Same read-out for VPVDGYISGLL [PAK6_Y81_M76V] ? middle bin

----------
# system.under.test: Grb2 SH2 (UniProt P62993)
# Sequence (P62993 whole entry, looked up): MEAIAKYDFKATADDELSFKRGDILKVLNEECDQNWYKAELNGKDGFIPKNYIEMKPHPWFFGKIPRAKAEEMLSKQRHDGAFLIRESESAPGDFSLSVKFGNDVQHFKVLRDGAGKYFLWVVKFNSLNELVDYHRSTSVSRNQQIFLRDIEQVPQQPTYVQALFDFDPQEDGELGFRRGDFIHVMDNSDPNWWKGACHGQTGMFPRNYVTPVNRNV
# experiment.summary: SH2 binding enrichment of the phosphorylated peptide, bacterial display (enrichment ratio); higher = better substrate or ligand; peptides without Tyr show the background
Each entry falls in a class defined on SH2 binding enrichment; the bands are b0 (below 0.8), b1 (0.8 to below 0.9), b2 (0.9 or more)

Answered cases to consult:
MFCASYDTKQE [F10_Y407_G406S]
b0
DPGVSYHTREE [PDHA1_Y301_R302H]
b0
EKKKYYDTKIE [CASP5_Y104]
b0
HNMPIYEGYAL [ACTA1_Y168_V165M]
b0
ESPGLCGFLNV [BCR_Y910_Y910C]
b0
IGEGTSGVVYK [CDK2_Y15_Y15S]
b0
RRAKGYPINLF [ITGB2_Y125_D128N_YF]
b1
NTYENYWPFYQ [GATM_Y103_K102N]
b2

Hi there! Could you help me figure out the category for CTTIHYNFICN [TP53_Y234_M237I_YF] please? b2

KFDLMYAKCAF [TUBA1A_Y399_R402C] ? b0

----------
# system.under.test: FGFR3 (UniProt P22607)
# Sequence (P22607 whole entry, looked up): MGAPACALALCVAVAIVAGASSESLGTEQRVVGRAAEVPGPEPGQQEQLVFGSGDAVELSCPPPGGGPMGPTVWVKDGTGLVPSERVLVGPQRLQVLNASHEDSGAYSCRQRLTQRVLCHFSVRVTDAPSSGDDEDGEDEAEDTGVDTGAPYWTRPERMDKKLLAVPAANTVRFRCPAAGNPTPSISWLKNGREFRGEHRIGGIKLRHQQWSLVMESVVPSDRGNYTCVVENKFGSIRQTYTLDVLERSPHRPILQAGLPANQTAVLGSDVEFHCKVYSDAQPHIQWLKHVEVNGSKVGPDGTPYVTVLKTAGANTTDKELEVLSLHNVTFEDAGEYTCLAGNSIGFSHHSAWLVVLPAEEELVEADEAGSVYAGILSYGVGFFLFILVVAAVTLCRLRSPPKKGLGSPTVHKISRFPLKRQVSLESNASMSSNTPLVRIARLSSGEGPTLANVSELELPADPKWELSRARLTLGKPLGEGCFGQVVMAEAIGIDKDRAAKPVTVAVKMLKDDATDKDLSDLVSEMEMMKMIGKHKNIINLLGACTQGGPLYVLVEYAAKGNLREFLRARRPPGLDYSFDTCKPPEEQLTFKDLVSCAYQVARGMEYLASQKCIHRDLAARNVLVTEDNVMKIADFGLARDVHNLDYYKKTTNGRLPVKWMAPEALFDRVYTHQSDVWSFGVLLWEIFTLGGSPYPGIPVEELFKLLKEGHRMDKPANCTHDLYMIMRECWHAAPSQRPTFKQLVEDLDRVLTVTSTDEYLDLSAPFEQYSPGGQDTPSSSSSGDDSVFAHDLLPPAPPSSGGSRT
# experiment.summary: phosphorylation enrichment, bacterial display (enrichment ratio); higher = better substrate or ligand; peptides without Tyr show the background
endpoint: phosphorylation enrichment
Answer with a number only.

Example cases with answers are listed next.
EGWQVYRLGAR [MISP_Y95]
0.607
RVLKLYGCSPS [ASTL_Y279]
0.608
FVSSFYHAFSG [ACTN4_Y265_YF]
1.34

What phosphorylation enrichment value was documented for this sequence, PDGHEYIFVDP [PDGFRA_Y572_YF] ? 1.99

What about AFGTVYKGLWI [EGFR_Y727] ? 0.755

And then DDPRTYQKYGY [OAS1_Y362_R361T] , what is it? 0.555

What do we get for IRTIDYRYTVC [IDS_Y497_W502C] ? 0.754

Also need KHTLSFVDVGT [SDHA_Y629_Y629F] , thanks. 0.497

Same for ITNLLYHLVGW [GBA_Y412_V414L] 5.47

How about `IPQEEYTATGL` ? 0.653

The measurements presented in this section are drawn from the supplement of paper PMC10065799.
